Tested on: NCI-H322M lung
Experiment: NCI-60 one-dose screen, 48 h
Conditions: 10 µM unless noted
Protocol: Growth inhibition of the NCI-H322M human Non-Small Cell Lung tumor cell line is measured as a screen for anti-cancer activity. Cells are grown in 96 well plates and exposed to the test compound for 48 hours. Compounds are tested at a single concentration, which is 10^-5 M for most compounds. The reported endpoint is percent growth (GI% or GIPRCNT), where numbers from 0 - 100% represent growth inhibition, and numbers from -100% - 0 represent cell death. […]
The panel holds about 83,000 compounds, 20% with a hit somewhere; the sample as a whole holds those more often. The source made the active and inactive calls. Rule for the calls: active = growth percent below 10; inactive = the rest.
Answer with one of the outcomes active, inactive

Known results for compounds:
COc1ccc(N(CC(=O)NCCC[Te]c2ccccc2)C(=O)CNC(=O)OC(C)(C)C)cc1 :: active
O=C(NCCN1CC1)C(=O)NCCN1CC1 :: inactive
[Cl][Hg][c]1cc[c]([Hg][Cl])o1 :: inactive

QUERY: Per the assay record, what outcome was assigned to CC(C)[C@]12O[C@H]1[C@@H]1O[C@]13[C@]1(O[C@H]1C[C@H]1c4c(C(=O)c5ccccc5)oc(OC(=O)c5ccccc5)c4CC[C@@]13C)[C@@H]2O ?
RESULT: active

====

tested on: SR leukemia; test: NCI-60 one-dose screen, 48 h; details: 10 µM unless noted
About 83,000 compounds went through this panel and 20% of them were active in at least one assay; those are over-represented in the sample as a whole. Activity calls are given as the source filed them. How the source made its calls: active means growth percent below 10; inactive means the rest.
Respond using exactly one of the listed classes: true for active, false for inactive

Recorded results for 6 compounds are shown here.
Cc1ccccc1NC(=NCCCN1CC1)Nc1ccccc1C :: false
CC(C)(N)Cc1ccccc1 :: false
COc1ccc2c(c1)c(-c1nc(-c3cn(C)c4ncccc34)cs1)cn2CCN1CCOCC1 :: false
C[C@]12CCc3nc(Nc4ccccc4F)sc3C1=CC[C@@H]1[C@@H]2CC[C@]2(C)C(=O)CC[C@@H]12 :: false
Oc1ccc2c3c1OC1[C@@H](O)CC[C@@]4(O)[C@@H](C2)N(CC2CCC2)CC[C@]314 (stereo partly specified) :: false
COC(=O)[C@@H](C)C[C@H](Cc1ccccc1)NC(=O)c1csc([C@@H](C[C@H](C(C)C)N(C)C(=O)[C@@H](NC(=O)[C@H]2CCCCN2C)C(C(F)(F)F)C(F)(F)F)OC(C)=O)n1 :: true

# evaluate next
QUERY: Short answer needed: outcome of this test for CN(C)C(=O)Oc1ccccc1 ?
RESULT: false

====

system: NCI-H23 lung; test: NCI-60 one-dose screen, 48 h (100 = growth as untreated, 0 = no growth, -100 = all killed); details: 10 µM unless noted
This is part of a sample that, as a whole, favours compounds with a hit. Of some 83,000 tested, about 20% had one in any assay.
READOUT NAME: growth (%)
Give bare numbers, in %.

// below: answered molecules
Oc1ccc2c3c1OC1[C@@H](O)CC[C@@]4(O)[C@@H](C2)N(CC2CCC2)CC[C@]314 (stereo not given in full) :: 104
COc1ccc(/C=C\c2cc(OC)c(OC)c(OC)c2)cc1NS(=O)(=O)c1ccc(Cl)cc1 :: 75.3

Your task in this section: give growth for each listed record.
1. Cn1cccc1C1CC(=O)N(CCC[Se]C#N)C1=O (stereo not given)
2. CCCC(=O)O[C@@H]1C[C@H]2C[C@@H](O[C@@H]3O[C@@H](C)[C@@H](O)[C@@H](O)[C@H]3OC)C[C@@H](C[C@@H](C)/C=C/C=C\C[C@@H]3O[C@@H](C[C@@H]3C)[C@@H](O)C[C@H]3C[C@@]1(O)C(=O)O3)O2
3. CCOC(=O)C(Cc1ccc(N(CCCl)CCCl)cc1)NC(=O)C(CC(C)C)NC(C)=O (stereo not given)
4. COc1cc2c(=O)n(C3CCCCCCC3)c3c4cc[nH]c4ncc3c2cc1OC
5. COc1cc(C=Nc2cc(Cl)cc(Cl)c2)ccc1N(CCCl)CCCl
6. O=C(CC1(O)C(=O)N(Cc2ccccc2)c2ccc(Br)cc21)c1ccc(C(=O)NCC2CCC3(CC2)OOC2(CCCCC2)OO3)cc1 (stereo not given)

RESULT:
1: -25.4; 2: 25.9; 3: 17.1; 4: 57.5; 5: 80.1; 6: -74.3

Quick one: give me growth for each item below, same order please.
1. C1CCC([PH+](C2CCCCC2)C2CCCCC2[PH+](C2CCCCC2)C2CCCCC2)CC1.[Au].[CH-]1CCCCC1CC1CCCC[N-]1 (stereo not given)
2. CCCCCCCC(=O)OCC(=O)[C@]1(O)Cc2c(O)c3c(c(O)c2[C@@H](OC2CC(N)C(O)C(C)O2)C1)C(=O)c1c(OC)cccc1C3=O (stereo not given in full)

RESULT:
-46.3
-76.2

====

tested on: SNB-75 CNS; experiment: NCI-60 one-dose screen, 48 h; details: 10 µM unless noted
Compounds without any hit were thinned out: in the full panel of roughly 83,000, 20% have a hit. Active and inactive are the calls of the source. Rule for the calls: active = growth percent below 10; inactive = the rest.
Write down the outcome that applies. Available outcomes: 1 (yes) for active, 0 (no) for inactive

QUERY: Please state the recorded outcome for this compound: CCCCC1(CCC)C(=O)NC(=S)NC1=O
RESULT: 0 (no)

QUERY: Kindly provide the recorded test outcome for the following compound: COP(=O)(OC)C(O)c1ccc(Cl)cc1 (centres undefined)
RESULT: 0 (no)

QUERY: Please state the recorded outcome for this compound: CC(=O)O[C@H]1CC[C@]2(C)[C@H]3CC[C@]4(C)[C@@H](OC(C)=O)CC[C@H]4[C@@H]3[C@@H](C)[C@]2(O)C1
RESULT: 0 (no)

QUERY: Please let me know the test result on file for O=[N+]([O-])CC(O)C(Cl)(Cl)Cl (centres undefined) .
RESULT: 0 (no)

QUERY: Name the outcome recorded for CS(=O)(=O)CCN1CC2CCCC(C2)C1 in the assay.
RESULT: 0 (no)

QUERY: In this assay, the call recorded for O=C1CC2(CC3(Cl)C(Cl)=C(Cl)C2(Cl)C3(Cl)Cl)C(=O)O1 (centres undefined) was what?
RESULT: 0 (no)

QUERY: Just curious, what result did C=CC[PH+](c1ccccc1)c1ccccc1.C=CC[PH+](c1ccccc1)c1ccccc1.[Cl][Pt][Cl] get here?
RESULT: 0 (no)

QUERY: Entry CC(=O)O[C@H](C[C@H](C(C)C)N(C)C(=O)[C@@H](NC(=O)[C@H]1CCCCN1C)C(C)C)c1nc(C(=O)N[C@@H](Cc2ccccc2)C[C@H](C)C(=O)O)c(C(C)C)s1 : call = ?
RESULT: 0 (no)

QUERY: Call for entry O=C1C2C(C(=O)[N]1[Hg][c]1ccccc1)C1(Cl)C(Cl)=C(Cl)C2(Cl)C1(Cl)Cl (centres undefined) :
RESULT: 1 (yes)

QUERY: Each compound tested received a call. Report the one for COC(=O)C1OC(Oc2ccc(N(CCCl)CCCl)cc2)C(OC(C)=O)C(OC(C)=O)C1OC(C)=O (centres undefined) .
RESULT: 0 (no)

QUERY: Hello, I am checking results. What call was entered for ClCCN(CCCl)Cc1ccc(Nc2ccnc3cc(Cl)ccc23)cc1 ?
RESULT: 0 (no)

QUERY: # lookup: test call for COc1ccc(/C=C\c2cc(OC)c(OC)c(OC)c2)cc1OCC(=O)Nc1nc2ccc(C(F)(F)F)cc2s1
RESULT: 1 (yes)

====

system: A498 renal; experiment: NCI-60 one-dose screen, 48 h (100 = growth as untreated, 0 = no growth, -100 = all killed); conditions: 10 µM
The panel holds about 83,000 compounds, 20% with a hit somewhere; the sample as a whole holds those more often.
READOUT NAME: growth (%)
Answers are plain numbers, in %.

Worked set:
O=C(N/N=C/c1ccc(N(CCCl)CCCl)cc1)c1cccc2ccccc12 :: -9.28
COc1ccc(C(=O)c2sc3nc4c(cc3c2N)N2CCC4CC2)cc1OC :: 116
CC(=O)[C@H]1CC[C@H]2[C@@H]3CC[C@H]4C[C@H](N)CC[C@]4(C)[C@H]3CC[C@]12C :: 78.6
Cc1ccc(Nc2nc3c(s2)C2=CC[C@@H]4[C@H](CC[C@]5(C)C(=O)CC[C@@H]45)[C@@]2(C)CC3)cc1 :: 51.3
CC[C@H](NC(=O)[C@H]1CCCCN1C)C(=O)N(C)[C@H](C[C@@H](OC(C)=O)c1nc(C(=O)N[C@@H](Cc2ccccc2)C[C@H](C)C(=O)O)cs1)C(C)C :: -8.18
C/C(=C\c1ccn(-c2ccc(N)c(F)c2)n1)[C@@H]1C[C@@H]2O[C@]2(C)CCC[C@H](C)[C@H](O)[C@@H](C)C(=O)C(C)(C)[C@@H](O)CC(=O)O1 :: 13

Give growth for all compounds that follow.
1. COc1ccc(Nc2ccc([N+](=O)[O-])cc2[N+](=O)[O-])cc1CN(CCCl)CCCl
2. Cc1cc(N(CCCl)CCCl)ccc1C=Nc1ccc(-c2csc(Cc3ccccc3)n2)cc1
3. CCCCNC(c1ccc(Cl)cc1)C(O)c1ccc(Cl)cc1 (stereo not drawn)
4. CN1CCC(O)(c2ccc(F)cc2)C(C(=O)c2ccc(F)cc2)C1 (stereo not drawn)
5. O=C(c1ccccc1O)c1[nH]c(Cl)c(Cl)c1-n1c(C(=O)c2ccccc2O)cc(Cl)c1Cl
6. O=C(O)CNC(=O)C(Cl)(Cl)Cl
7. CCCCCCCCOC(=O)CCN1CC1

RESULT:
1. 18.5
2. -45.8
3. 57.8
4. 104
5. -33.3
6. 96.2
7. 84.2
